Hey, just so you know, these numbers are from the supplement of paper PMC10567573.

B1: PDZK1 (parent)
chain: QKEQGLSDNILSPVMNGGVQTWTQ

Variants of: B1
Assay Name: protein stability index of a GFP-peptide fusion (GPS, HEK-293T) (PSI 1-6); higher = more stable;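 also: lentivirally expressed fusions sorted by FACS into six bins by GFP to DsRed ratio, PSI derived from sequencing read proportions per bin multiplied by bin number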
Condition Label: c terminus: a fixed tail appended
Measured Endpoint: protein stability index

Exercise: Using known records, supply protein stability index for M15R
Key: 2.24

Exercise: Fill in protein stability index for record Q20S
Key: 2.88

Exercise: In one line, give reported protein stability index of the entry I10K .
Key: 3.02

Exercise: Identify measured protein stability index corresponding to P13V
Key: 2.41

Exercise: Indicate its recorded protein stability index; the variant in question is W22H
Key: 4.59

Exercise: Quick one: give measured protein stability index for L11P
Key: 2.48

Exercise: Give the value of protein stability index reported for the following: G18S
Key: 2.65

Exercise: Please give measured protein stability index of the following entry: I10C
Key: 3.03

Exercise: Dear colleague, please send me the reported protein stability index for Q20D when you can.
Key: 3.29

Exercise: Note protein stability index for the variant shown: L11C
Key: 2.63

Exercise: Name the recorded protein stability index of the variant listed here: G18D
Key: 3.35

Exercise: Kindly indicate its recorded protein stability index. Item: M15C
Key: 1.97

Exercise: Report protein stability index for N9T
Key: 2.56

Exercise: Could you please provide reported protein stability index for L11A ? Thanks!
Key: 3.47

Exercise: Supply measured protein stability index of V14G in your reply.
Key: 1.5

Exercise: Tell me measured protein stability index for D8F please.
Key: 1.1

Exercise: State its protein stability index: S12K
Key: 2.18

Exercise: Please report the measured protein stability index for E3T
Key: 2.88

Exercise: Quickly give me recorded protein stability index for Q4C
Key: 2.08

Exercise: Give the measured protein stability index for W22F
Key: 3.97

Exercise: Write down protein stability index measured for item M15I
Key: 2.79

Exercise: Give reported protein stability index value for M15E
Key: 3.69

Exercise: Supply protein stability index value. Item: I10Y
Key: 2.6

Exercise: Hello, please tell me recorded protein stability index for this one: T21F
Key: 2.75

Exercise: Report measured protein stability index; entry is K2Y
Key: 3.24

Exercise: // Input: V19T . Output its protein stability index only.
Key: 3.09

Exercise: For the variant T21A , give its reported protein stability index.
Key: 3.61

Exercise: Supply reported protein stability index belonging to this variant: G5S
Key: 1.87

Exercise: Supply protein stability index value. Item: N9L
Key: 2.21

Exercise: Provide one value: measured protein stability index of Q20V
Key: 2.67

Exercise: In one line, give reported protein stability index of the entry L6Y .
Key: 2.49

Exercise: Give me measured protein stability index, please, for this variant: G18A
Key: 3.46

Exercise: Return protein stability index (reported value) for this variant: N16F
Key: 2.61

Exercise: Recall and state the measured protein stability index for D8S .
Key: 2.34

Exercise: Annotate the variant M15Q with its measured protein stability index.
Key: 2.46

Exercise: Name the recorded protein stability index of the variant listed here: I10F
Key: 2.04

Exercise: Give recorded protein stability index. N16L
Key: 2.47

Exercise: Tell me measured protein stability index for Q1E please.
Key: 3.26

Exercise: Specify measured protein stability index for K2R .
Key: 3.05

Exercise: Give the reported value of protein stability index for this record: L6T
Key: 3.27

Exercise: Answer with the recorded protein stability index of Q1W only.
Key: 1.94

Exercise: Fill in reported protein stability index for this entry: D8N
Key: 2.68

Exercise: Supply recorded protein stability index for E3H here.
Key: 2.24

Exercise: In one line, give reported protein stability index of the entry D8Y .
Key: 2.15

Exercise: Dear colleague, please send me the reported protein stability index for L6E when you can.
Key: 3.65

Exercise: Give the value of protein stability index reported for the following: W22K
Key: 4.93

Exercise: Quickly give me recorded protein stability index for G17E
Key: 3.27

Exercise: Consider the variant D8V and give its recorded protein stability index.
Key: 2.29

Exercise: Please look at this variant and report its protein stability index: Q20A
Key: 3.69

Exercise: Item Q4R : provide protein stability index
Key: 3.73
